These data points were gathered from paper PMC5986797.

Tested on: FGF-2
assay_details: ELISA: FGF-2 binding to laminin LG domain / laminin peptide
Parameters: species or system human
stated_conditions: 10 µg/mL laminin peptide coated (legend; method 1 μg/mL); 1 μg/mL GF; vs BSA-coated wells; n = 4
Method: ELISA tests were performed as described above. […] Bound GF was detected with biotinylated antibodies for human VEGF-A, PlGF, PDGF-BB (R&D Systems, Catalog No. DY220, 1:180 dilution), or FGF-2 (R&D Systems). The antibodies were detected by streptavidin-HRP (R&D Systems).
observation_type: binding to FGF-2 (ELISA), peptides

[
  {
    "query_sequence": "RLVFALGTDGKKLRIKSKEKCNDGK [LAMA3_3043–3067, chemically synthesized human laminin LAMA3 LG4 HBD peptide, 25 aa]",
    "observed_result": "bound"
  },
  {
    "query_sequence": "PLFLLHKKGKNLSKPKASQNKKGGKSK [LAMA4_1408–1434, chemically synthesized human laminin LAMA4 linker peptide, 27 aa]",
    "observed_result": "bound"
  },
  {
    "query_sequence": "RQRSRPGRWHKVSVRWEKNR [LAMA5_3417–3436, chemically synthesized human laminin LAMA5 LG4 peptide, 20 aa]",
    "observed_result": "bound"
  }
]

----------
Test system: recombinant human syndecan-1, syndecan-2, syndecan-3, and syndecan-4
assay_details: ELISA: syndecan binding to laminin peptides
stated_conditions: 10 µg/mL laminin peptide coated (legend; method 1 μg/mL); 1 μg/mL histidine-tagged syndecan; vs BSA-coated wells; n = 8
observation_type: binding to syndecans 1–4 (ELISA)

[
  {
    "query_sequence": "TLFLAHGRLVYMFNVGHKKLKIR [LAMA4_1521–1543, chemically synthesized human laminin LAMA4 LG4 peptide, 23 aa]",
    "observed_result": "significant binding"
  },
  {
    "query_sequence": "RQRSRPGRWHKVSVRWEKNR [LAMA5_3417–3436, chemically synthesized human laminin LAMA5 LG4 peptide, 20 aa]",
    "observed_result": "significant binding"
  },
  {
    "query_sequence": "RLVFALGTDGKKLRIKSKEKCNDGK [LAMA3_3043–3067, chemically synthesized human laminin LAMA3 LG4 HBD peptide, 25 aa]",
    "observed_result": "significant binding"
  }
]

----------
Test system: recombinant human syndecan-1, syndecan-2, syndecan-3, and syndecan-4
assay_details: ELISA: syndecan binding to laminin peptides
Design: key: ++ indicates high affinities; + indicates medium/low affinities
stated_conditions: summary table
observation_type: Interaction with Syndecan

[
  {
    "query_sequence": "TLFLAHGRLVYMFNVGHKKLKIR [LAMA4_1521–1543, chemically synthesized human laminin LAMA4 LG4 peptide, 23 aa]",
    "system": "recombinant human syndecan-1, syndecan-2, syndecan-3, and syndecan-4",
    "observed_result": "++"
  },
  {
    "query_sequence": "ARKASRRSRQPARH [LAMA5_3312–3325, chemically synthesized human laminin LAMA5 linker peptide, 14 aa, subdomain of LAMA5_3300–3330]",
    "system": "recombinant human syndecan-1, syndecan-2, syndecan-3, and syndecan-4",
    "observed_result": "+"
  },
  {
    "query_sequence": "PLFLLHKKGKNLSKPKASQNKKGGKSK [LAMA4_1408–1434, chemically synthesized human laminin LAMA4 linker peptide, 27 aa]",
    "system": "recombinant human syndecan-1, syndecan-2, syndecan-3, and syndecan-4",
    "observed_result": "++"
  },
  {
    "query_sequence": "KNSFMALYLSKGR [LAMA3_3031–3043, chemically synthesized human laminin LAMA3 LG4 peptide, 13 aa]",
    "system": "recombinant human syndecan-1, syndecan-2, syndecan-3, and syndecan-4",
    "observed_result": "+"
  },
  {
    "query_sequence": "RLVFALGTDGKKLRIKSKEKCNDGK [LAMA3_3043–3067, chemically synthesized human laminin LAMA3 LG4 HBD peptide, 25 aa]",
    "system": "recombinant human syndecan-1, syndecan-2, syndecan-3, and syndecan-4",
    "observed_result": "++"
  },
  {
    "query_sequence": "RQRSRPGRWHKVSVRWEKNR [LAMA5_3417–3436, chemically synthesized human laminin LAMA5 LG4 peptide, 20 aa]",
    "system": "recombinant human syndecan-1, syndecan-2, syndecan-3, and syndecan-4",
    "observed_result": "++"
  },
  {
    "query_sequence": "PPFLMLLKGSTRFNKTKTFR [LAMA3_2932–2951, chemically synthesized human laminin LAMA3 LG3–LG4 linker peptide, 20 aa]",
    "system": "recombinant human syndecan-1, syndecan-2, syndecan-3, and syndecan-4",
    "observed_result": "+"
  }
]

Could you now look at the following sequence, please?
What value of Interaction with Syndecan has been recorded for this entry: TPGLGPRGLQATARKASRRSRQPARHPACML [LAMA5_3300–3330, chemically synthesized human laminin LAMA5 linker peptide, 31 aa]
++
